Test system: SK-MEL-5 melanoma
test-protocol: NCI tumour cell line growth inhibition, 48 h
// reported TGI for each item listed
Quick reminder: number only, in µM, skip the unit.

{"compound": "CNCC/C=C1\\c2cc3c(cc2-c2c1c1cc(OC)c(OC)cc1c(=O)n2C)OCO3", "recorded-number": 2.89}

Note to self: TGI recorded for C=CC(COC(=O)C(C)(C)OC(C)=O)c1ccc(OC(=O)C(C)C)c(OC)c1 (configuration not stated) was 27.8

Note to self: TGI recorded for `Cc1cc(C(=O)/C=C/c2ccc[nH]2)ccc1-n1ccc(C(F)(F)F)n1` was 25.3

Note to self: TGI recorded for O=NN1C(c2ccccc2)C2CCCC(C2=O)C1c1ccccc1 (configuration not stated) was 35.7

Note to self: TGI recorded for C[N+](C)(C)CC1CCC(C[N+](C)(C)C)C1=O (configuration not stated) was 23.8
